targetUnderTest: WEE1 (Homo sapiens, UniProt P30291+Q96SW2)
Construct: C-terminal ePL-tagged (DiscoverX, Fremont, CA) full-length WEE1 expression construct; expressed in transfected cells; host or cells: LentiX-HEK293T (Invitrogen), lentiviral transduction; co-expressing GSPT1-GN (G576N, lacking the first 158 amino acids)
protocolDescription: WEE1-ePL degradation assay (LentiX-WEE1-ePL-GSPT1-ND cells, InCELL Hunter luminescence, 4 h)
Assay type: cell-based
testParameters: 293T-LentiX WEE1-ePL cells, read-out: 293T-LentiX WEE1-ePL Degradation 4 hr (EC50)
Here, each record is paired with measured log10 DC50 data.
// do not treat as linear: log10 of DC50, unit nM

Illustrative cases are given below, each with its answer.
{"compound": "CO[C@@H]1CCC[C@H](c2ccc3cc(CN4CC[C@H](Oc5ccc6c(c5)CN(C5CCC(=O)NC5=O)C6=O)C4)ccc3n2)C1 (stereo partly drawn)", "log10 DC50": 1.46}
{"compound": "C[C@@H]1CC(c2ccc3cc(CN4CC[C@H](Oc5ccc6c(c5)CN(C5CCC(=O)NC5=O)C6=O)C4)ccc3n2)C[C@H](C)O1 (stereo partly drawn)", "log10 DC50": 1.07}
{"compound": "Cc1ccc2cc(CN3C[C@@H](C)[C@H](Oc4ccc5c(c4)CN(C4CCC(=O)NC4=O)C5=O)C3)ccc2n1 (stereo partly drawn)", "log10 DC50": 0.49}
{"compound": "O=C1CCC(N2Cc3cc(O[C@H]4CCN(Cc5ccc6nc(N7C[C@H]8CCO[C@H]8C7)ncc6c5)C4)ccc3C2=O)C(=O)N1 (stereo partly drawn)", "log10 DC50": 1.10}
{"compound": "O=C1CCC(N2Cc3cc(O[C@H]4CCN(Cc5ccc6nc([C@H]7CCCOC7)ncc6c5)C4)ccc3C2=O)C(=O)N1 (stereo partly drawn)", "log10 DC50": 1.20}

Prompt: Report log10 DC50 for O=C1CCC(N2Cc3cc(O[C@H]4CCN(Cc5ccc6nc(N7CCCCC7=O)ccc6c5)C4)ccc3C2=O)C(=O)N1 (stereo partly drawn) please.
Response: 0.24

Prompt: Report log10 DC50 for Cc1nc(CN2CC[C@H](Oc3ccc4c(c3)CN(C3CCC(=O)NC3=O)C4=O)C2)cc2ccccc12 (stereo partly drawn) please.
Response: 1.49

Prompt: Report log10 DC50 for O=C1CCC(N2Cc3cc(O[C@H]4CCN(Cc5ccc6nc(C7CCOCC7)ccc6c5F)C4)ccc3C2=O)C(=O)N1 (stereo partly drawn) please.
Response: 0.12

###

targetUnderTest: WEE1 (Homo sapiens, UniProt P30291+Q96SW2)
Construct: C-terminal ePL-tagged (DiscoverX, Fremont, CA) full-length WEE1 expression construct; expressed in transfected cells; host or cells: LentiX-HEK293T (Invitrogen), lentiviral transduction; co-expressing GSPT1-GN (G576N, lacking the first 158 amino acids)
protocolDescription: WEE1-ePL degradation assay (LentiX-WEE1-ePL-GSPT1-ND cells, InCELL Hunter luminescence, 4 h)
Type: cell-based
testParameters: 293T-LentiX WEE1-ePL cells, lower limit of the fit (0 = luciferase inhibitor, Ymax = DMSO control)
parameterMeasured: 293T-LentiX WEE1-ePL Degradation 4 hr (Ymin)
Enter a number only.

Illustrative cases are given below, each with its answer.
{"compound": "O=C1CCC(N2Cc3cc(O[C@@H]4CN(Cc5ccc6nc(C7CCOCC7)ccc6c5)CC4(F)F)ccc3C2=O)C(=O)N1 (stereo partly shown)", "valueReported": 27.9}
{"compound": "O=C1CCC(N2Cc3cc(O[C@H]4CCN(Cc5cnn(-c6cccnc6)c5)C4)ccc3C2=O)C(=O)N1 (stereo partly shown)", "valueReported": 31.735}
{"compound": "O=C1CCC(N2Cc3cc(O[C@H]4CCN(Cc5ccc6nc(N7CCC78CCOCC8)ncc6c5)C4)ccc3C2=O)C(=O)N1 (stereo partly shown)", "valueReported": 37}
{"compound": "O=C1CCC(N2Cc3cc(O[C@H]4CCN(Cc5ccc6ccc(=O)oc6c5)C4)ccc3C2=O)C(=O)N1 (stereo partly shown)", "valueReported": 55}
{"compound": "O=C1CCC(N2Cc3cc(O[C@H]4CCN(Cc5cc(-c6ccccc6)ccn5)C4)ccc3C2=O)C(=O)N1 (stereo partly shown)", "valueReported": 34.5}
{"compound": "COc1nc2ccccc2cc1CN1CC[C@H](Oc2ccc3c(c2)CN(C2CCC(=O)NC2=O)C3=O)C1 (stereo partly shown)", "valueReported": 45.09}
{"compound": "O=C1CCC(N2Cc3cc(O[C@H]4CCN(Cc5ccc6nccnc6c5)C4)ccc3C2=O)C(=O)N1 (stereo partly shown)", "valueReported": 43}
{"compound": "O=C1CCC(N2Cc3cc(O[C@H]4CCN(Cc5ccc6nc(N7CC8(COC8)C7)ccc6c5)C4)ccc3C2=O)C(=O)N1 (stereo partly shown)", "valueReported": 41.5}
{"compound": "O=C1CCC(N2C(=O)c3ccc(O[C@H]4CCN(Cc5ccnc6ccccc56)C4)cc3C2=O)C(=O)N1 (stereo partly shown)", "valueReported": 38.05}
{"compound": "O=C1CCC(N2Cc3cc(O[C@H]4CCN(Cc5cc6cc([C@@H]7CCOC7)ccc6cn5)C4)ccc3C2=O)C(=O)N1 (stereo partly shown)", "valueReported": 28}

Prompt: I'm curious: which 293T-LentiX WEE1-ePL Degradation 4 hr (Ymin) was measured for CN1CCCc2cc(CN3CC[C@H](Oc4ccc5c(c4)CN(C4CCC(=O)NC4=O)C5=O)C3)cnc21 (stereo partly shown) tested on WEE1 (Homo sapiens, UniProt P30291+Q96SW2)?
Response: 58

Prompt: I'm curious: which 293T-LentiX WEE1-ePL Degradation 4 hr (Ymin) was measured for O=C1CCC(N2Cc3cc(O[C@H]4CCN(Cc5ccc6ncccc6n5)C4)ccc3C2=O)C(=O)N1 (stereo partly shown) tested on WEE1 (Homo sapiens, UniProt P30291+Q96SW2)?
Response: 37

Prompt: I'm curious: which 293T-LentiX WEE1-ePL Degradation 4 hr (Ymin) was measured for O=C1CCC(N2Cc3cc(O[C@H]4CCN(Cc5ccc6nc(NC7CCOCC7)ccc6c5)C4)ccc3C2=O)C(=O)N1 (stereo partly shown) tested on WEE1 (Homo sapiens, UniProt P30291+Q96SW2)?
Response: 37

Prompt: I'm curious: which 293T-LentiX WEE1-ePL Degradation 4 hr (Ymin) was measured for CO[C@H]1C[C@H](c2ccc3cc(CN4CC[C@H](Oc5ccc6c(c5)CN(C5CCC(=O)NC5=O)C6=O)C4)ccc3n2)C1 (stereo partly shown) [drawing 579] tested on WEE1 (Homo sapiens, UniProt P30291+Q96SW2)?
Response: 21.76

Prompt: I'm curious: which 293T-LentiX WEE1-ePL Degradation 4 hr (Ymin) was measured for O=C1CCC(N2Cc3cc(O[C@H]4CCN(Cc5ccc6nc(N7C[C@H]8C[C@@H](C7)O8)ncc6c5)C4)ccc3C2=O)C(=O)N1 (stereo partly shown) tested on WEE1 (Homo sapiens, UniProt P30291+Q96SW2)?
Response: 39

Prompt: I'm curious: which 293T-LentiX WEE1-ePL Degradation 4 hr (Ymin) was measured for O=C1CCC(N2Cc3cc(O[C@H]4CCN(Cc5cc6cccnc6cn5)C4)ccc3C2=O)C(=O)N1 (stereo partly shown) tested on WEE1 (Homo sapiens, UniProt P30291+Q96SW2)?
Response: 26.505

Prompt: I'm curious: which 293T-LentiX WEE1-ePL Degradation 4 hr (Ymin) was measured for CN1CCC(c2ccc3cc(CN4CC[C@H](Oc5ccc6c(c5)CN(C5CCC(=O)NC5=O)C6=O)C4)ccc3n2)CC1 (stereo partly shown) tested on WEE1 (Homo sapiens, UniProt P30291+Q96SW2)?
Response: 30

Prompt: I'm curious: which 293T-LentiX WEE1-ePL Degradation 4 hr (Ymin) was measured for CO[C@H]1C[C@H](c2ccc3cc(CN4CC[C@H](Oc5ccc6c(c5)CN(C5CCC(=O)NC5=O)C6=O)C4)ccc3n2)C1 (stereo partly shown) [drawing 578] tested on WEE1 (Homo sapiens, UniProt P30291+Q96SW2)?
Response: 27.12

Prompt: I'm curious: which 293T-LentiX WEE1-ePL Degradation 4 hr (Ymin) was measured for Cc1nc(CN2CC[C@H](Oc3ccc4c(c3)CN(C3CCC(=O)NC3=O)C4=O)C2)cc2ccccc12 (stereo partly shown) tested on WEE1 (Homo sapiens, UniProt P30291+Q96SW2)?
Response: 47.56

Prompt: I'm curious: which 293T-LentiX WEE1-ePL Degradation 4 hr (Ymin) was measured for N#Cc1ncc2cc(CN3CC[C@H](Oc4ccc5c(c4)CN(C4CCC(=O)NC4=O)C5=O)C3)ccc2n1 (stereo partly shown) tested on WEE1 (Homo sapiens, UniProt P30291+Q96SW2)?
Response: 35

Prompt: I'm curious: which 293T-LentiX WEE1-ePL Degradation 4 hr (Ymin) was measured for CC1(C)C[C@H](c2ncc3cc(CN4CC[C@H](Oc5ccc6c(c5)CN(C5CCC(=O)NC5=O)C6=O)C4)ccc3n2)CCO1 (stereo partly shown) tested on WEE1 (Homo sapiens, UniProt P30291+Q96SW2)?
Response: 27

Prompt: I'm curious: which 293T-LentiX WEE1-ePL Degradation 4 hr (Ymin) was measured for C[C@]1(Oc2ccc3c(c2)CN(C2CCC(=O)NC2=O)C3=O)CCN(Cc2ccc3nc(C#N)ccc3c2)C1 (stereo partly shown) tested on WEE1 (Homo sapiens, UniProt P30291+Q96SW2)?
Response: 94

// provenance: patent US20240067632A1
